Biological target: human B-Raf (Homo sapiens, UniProt P15056)
Construct: Flag; GST; made in house; host or cells: Sf9 insect cells (B-Raf); E. coli (MEK1-GST)
Sequence (P15056 whole entry): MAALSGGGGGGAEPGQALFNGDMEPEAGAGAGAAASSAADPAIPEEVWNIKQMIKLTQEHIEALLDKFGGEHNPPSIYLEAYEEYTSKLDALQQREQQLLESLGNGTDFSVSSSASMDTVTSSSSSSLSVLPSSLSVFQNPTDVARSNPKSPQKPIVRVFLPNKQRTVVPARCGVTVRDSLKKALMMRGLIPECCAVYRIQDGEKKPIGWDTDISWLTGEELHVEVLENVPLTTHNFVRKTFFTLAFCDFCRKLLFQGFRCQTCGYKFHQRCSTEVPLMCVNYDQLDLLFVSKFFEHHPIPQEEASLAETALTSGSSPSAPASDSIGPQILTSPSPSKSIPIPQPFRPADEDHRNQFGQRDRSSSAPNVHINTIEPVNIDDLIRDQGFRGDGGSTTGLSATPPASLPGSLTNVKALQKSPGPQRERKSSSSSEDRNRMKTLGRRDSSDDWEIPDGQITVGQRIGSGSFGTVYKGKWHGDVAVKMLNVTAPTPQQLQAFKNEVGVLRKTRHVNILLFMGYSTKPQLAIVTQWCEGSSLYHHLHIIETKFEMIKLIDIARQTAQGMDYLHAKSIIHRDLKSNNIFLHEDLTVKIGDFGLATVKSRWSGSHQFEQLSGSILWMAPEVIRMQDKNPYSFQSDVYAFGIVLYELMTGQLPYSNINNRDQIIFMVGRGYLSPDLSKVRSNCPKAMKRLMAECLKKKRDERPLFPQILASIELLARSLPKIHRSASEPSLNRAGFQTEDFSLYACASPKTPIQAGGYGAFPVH
Test: B-Raf Kinase to MEK1 ELISA
Format: biochemical
Settings: read-out: % Inhib./10 uM
readout_kind: inhibition at 10 µM (%)

Consider the worked cases shown below.
{"compound": "O=C(Nc1cccc(-c2ccnc3cc(N4CCOCC4)nn23)c1)Nc1cccc(C(F)(F)F)c1 [Example 199]", "inhibition at 10 µM [%]": 96}
{"compound": "Cc1ccc(C(=O)Nc2cccc(-c3ccnc4c(Br)cnn34)c2)cc1C(F)(F)F [Example 161]", "inhibition at 10 µM [%]": 87}

(I) COC(=O)c1ccc(-c2cnn3c(-c4cccc(NC(=O)c5cccc(C(F)(F)F)c5)c4)ccnc23)cc1 [Example 297]
(II) O=C(Nc1cccc(-c2ccnc3cc(N4CCN(Cc5ccccc5)CC4)nn23)c1)c1cccc(C(F)(F)F)c1 [Example 207]
input: Between these two entries, I and II , state which has the higher inhibition at 10 µM. Kindly state the label of the option you pick.
output: I
(I: 75%, II: 0%)
